Recorded values, source patent US12344614B2.

Molecular target: human GABAA α2β2γ1 receptor (Homo sapiens (Human), UniProt P47869+Q8N1C3)
Experiment: Radioligand binding assay, competition for [3H]RO7239181, membranes from HEK293F cells
Conditions: [3H]RO7239181 20-30 nM, HEK293F membranes, 1 hour at 4° C., mean of two determinations; read-out: Ki h-GABAA α2β2γ1
pKi: −log10 of the molar value.
metric_name: pKi

CN1C(=O)CN=C(c2cc(O)ccc2Cl)c2cc(Cl)ccc21 [RE-A, reference compound]
8.55

---

Target: human GABAA α5β2γ1 receptor (Homo sapiens (Human), UniProt P31644+Q8N1C3)
Assay: Radioligand binding assay, competition for [3H]RO7239181, membranes from HEK293F cells
pKi: −log10 of the molar value.
Respond with true for pKi values of 9 and above, false for values below.

CC(C)NC(=O)c1cn2c(n1)[C@H](C)N=C(c1nc(O)ccc1F)c1c-2ccc(C(F)(F)F)c1Cl
false
Cc1cnc2n1-c1ccc(C(F)(F)F)c(Cl)c1C(c1nc(O)ccc1Cl)=N[C@H]2C
false
Oc1ccc(F)c(C2=NCc3nncn3-c3ccc(C(F)(F)F)c(Cl)c32)c1
true
Cc1nnc2n1-c1ccc(Cl)c(Cl)c1C(c1cc(O)ccc1F)=N[C@H]2C
true

---

Biological target: human GABAA α1β3γ2 receptor (Homo sapiens (Human), UniProt P14867+P18507)
Assay: Radioligand binding assay, competition for [3H]Flumazenil, HEK293F cells
Details: Log[Ki α1β3γ2 (nM)/Ki α2β2γ1 (nM)]
Recorded measurements of LogSel, one per entry
metric_name: LogSel

CN1C(=O)CN=C(c2cc(O)ccc2F)c2c1ccc(Cl)c2Cl
1.1
CN1C(=O)CN=C(c2cc(O)ccc2Cl)c2cc(Cl)ccc21 [RE-A, reference compound]
−0.27
CN1C(=O)CN=C(c2cc(O)ccc2F)c2cc(Cl)ccc21 [RE-B, reference compound]
−0.24
CC(C)NC(=O)c1cn2c(n1)[C@H](C)N=C(c1nc(O)ccc1F)c1c-2ccc(C(F)(F)F)c1Cl
2.90
Clc1ccc2c(c1)C(c1ccccc1)=NCc1nncn1-2 [Estazolam, reference compound]
−2.0
Cc1nnc2n1-c1ccc(C(F)(F)F)c(Cl)c1C(c1cc(O)ccc1F)=N[C@H]2C
1.59
O=c1ccn2c(n1)CN=C(c1c(F)ccc(O)c1F)c1c-2ccc(Cl)c1Cl
1.20
O=c1ccn2c(n1)CN=C(c1cc(O)ccc1F)c1c-2ccc(C(F)(F)F)c1Cl
2.28

---

Target: human GABAA α1β2γ1 receptor (Homo sapiens (Human), UniProt P14867+Q8N1C3)
Assay: Radioligand binding assay, competition for [3H]RO7239181, membranes from HEK293F cells
metric_name: log10 Ki (log10 of the value in nM)

O=c1ccn2c(n1)CN=C(c1cc(O)ccc1F)c1c-2ccc(C(F)(F)F)c1Cl
0.71
CN1C(=O)CN=C(c2cc(O)ccc2F)c2c1ccc(C(F)(F)F)c2Cl
0.73
CN1C(=O)CN=C(c2cc(O)ccc2F)c2c1ccc(Cl)c2Cl
0.46
Cc1ccc2c(c1Cl)C(c1cc(O)ccc1F)=NCC(=O)N2C
0.54
Cc1cn2c(n1)[C@H](C)N=C(c1nc(O)ccc1F)c1c-2ccc(C(F)(F)F)c1Cl
1.30
Cc1nnc2n1-c1ccc(Cl)c(Cl)c1C(c1cc(O)ccc1F)=NC2
0.74
Cc1nnc2n1-c1ccc(C(F)(F)F)c(Cl)c1C(c1cc(O)ccc1F)=NC2
0.93
Cc1nnc2n1-c1ccc(Cl)c(Cl)c1C(c1cc(O)ccc1F)=N[C@H]2C
0.53
Cc1nnc2n1-c1ccc(C(F)(F)F)c(Cl)c1C(c1nc(O)ccc1F)=N[C@H]2C
1.83
Cc1cnc2n1-c1ccc(C(F)(F)F)c(Cl)c1C(c1nc(O)ccc1Cl)=N[C@H]2C
1.31
Cc1nc2n(n1)-c1ccc(C(F)(F)F)c(Cl)c1C(c1nc(O)ccc1F)=N[C@H]2C
1.40
C[C@@H]1N=C(c2cc(O)ccc2F)c2c(ccc(Cl)c2Cl)-n2ccc(=O)nc21
0.52
Cc1nnc2n1-c1ccc(C(F)(F)F)c(Cl)c1C(c1nc(O)ccc1Cl)=N[C@H]2C
1.63
